- ASSAY COMMENT: Neutrophil viability (Trypan Blue exclusion, LDH release)
- Format: cell-based
- MEASUREMENT PARAMETERS: human, neutrophils, 50 μM sphinganine, 1.2×10^7 cells/ml; read-out: viability by Trypan Blue exclusion
VALUE KIND: viability at 50 µM

Record request: viability at 50 µM value, item CCCCCCCCCCCCCCC[C@@H](O)[C@@H](N)CO (relative stereo) [Sphinganine, erythro-dihydrosphingosine]
> 95%

---

- ASSAY COMMENT: HL-60 cell growth and viability
- Type: cell-based, human
- MEASUREMENT PARAMETERS: human, hl-60 cells, 1 μM sphinganine, no PMA, 24 h; read-out: % Viability
VALUE KIND: viability at 24 h, 1 µM (%)
Give the value, in units of %, as a plain number.

Record request: viability at 24 h, 1 µM value, item CCCCCCCCCCCCCCC[C@@H](O)[C@@H](N)CO (relative stereo) [Sphinganine, erythro-dihydrosphingosine]
95

---

- ASSAY COMMENT: HL-60 cell growth and viability
- Format: cell-based, human
- MEASUREMENT PARAMETERS: human, hl-60 cells, 8 nM PMA, 5 μM sphinganine, 24 h; read-out: Percent viability of suspended cells
VALUE KIND: viability at 24 h, 5 µM (%)
Give the value, in units of %, as a plain number.

Record request: viability at 24 h, 5 µM value, item CCCCCCCCCCCCCCC[C@@H](O)[C@@H](N)CO (relative stereo) [Sphinganine, erythro-dihydrosphingosine]
80

---

IC50 reference
- ASSAYED SYSTEM: protein kinase C
- ASSAY COMMENT: Mixed micellar protein kinase C activity assay for lysosphingolipids (Table VI)
- Format: biochemical
- MEASUREMENT PARAMETERS: 0.3% Triton X-100 mixed micelles, 6 mol % phosphatidylserine, 2 mol % dioleoylglycerol; read-out: Inhibition of Protein Kinase C, concentration giving 50% inhibition
- Experimental: TABLE VI: Inhibition of protein kinase C activity and phorbol-dibutyrate binding by lysosphingolipids. […] Lysosphingolipids were quantitated by reaction of the amine group with trinitrobenzenesulfonate. Gangliosides and lysosphingolipids were also quantitated by reaction with anthrone. […] Protein kinase C was purified to near homogeneity by the method of Wolf et al. (J. Biol. Chem. 260, 15718, 1985), and activity was measured using a mixed micellar assay (described herein). […]
Enter the number, and then the unit.

Record excerpt, results attached:
>>> measured("CCCCCCCCCCCCC/C=C/[C@@H](O)[C@@H](N)COP(=O)([O-])OCC[N+](C)(C)C")
"120 µM"
>>> measured("CCCCCCCCCCCCC/C=C/[C@@H](O)[C@@H](N)CO")
"80 µM"

Record request: IC50 value, item `CCCCCCCCCCCCC/C=C/[C@@H](O)[C@@H](N)CO[C@@H]1O[C@H](CO)[C@@H](O[C@@H]2O[C@H](CO)[C@H](O[C@H]3O[C@H](CO)[C@H](O)[C@H](O)[C@H]3O)[C@H](O)[C@H]2O)[C@H](O)[C@H]1O`
180 µM
